Biological target: SARS-CoV-2 PLpro-NAB (Severe acute respiratory syndrome coronavirus 2)
Assay: biochemical
Conditions: HP PLpro-NAB SARS-CoV-2 IC50 [µM] duplicates L-CYS BUFFER, Table S1; L-cysteine buffer
Assay endpoint: IC50

Asked: Please give the measured IC50 for this molecule: `Oc1c(Cl)cc(Cl)c(Cl)c1Cc1c(O)c(Cl)cc(Cl)c1Cl`
Given back: > 20 µM

====

Target: SARS-CoV-2 PLpro-NAB (Severe acute respiratory syndrome coronavirus 2)
Test: biochemical
Details: Table S1; DTT buffer; read-out: HP PLpro-NAB SARS-CoV-2 IC50 [µM] triplicates DTT BUFFER
Assay endpoint: IC50 (µM)
Use µM as the unit, but write only the number.

Below, each entry is followed by its recorded IC50 result.
CC1(C)CCC2=C(O1)C(=O)c1ccccc1C2=O [Alpha Lapachone] ... 4.43
CC[n+]1c(-c2ccccc2)c2cc(N)ccc2c2ccc(N)cc21 [Homidium Bromide] ... 13.7

Please examine the following record next.
Asked: Given the entry CC1(C)C(=O)N=C2C1=C(O)C(=O)c1ccccc12 [BVT-948] , report its measured IC50.
Given back: 0.39
